Source listed as ChEMBL document CHEMBL4196097.

TARGET_OR_SYSTEM: Translocator protein (Homo sapiens)
Sequence (P30536 whole entry): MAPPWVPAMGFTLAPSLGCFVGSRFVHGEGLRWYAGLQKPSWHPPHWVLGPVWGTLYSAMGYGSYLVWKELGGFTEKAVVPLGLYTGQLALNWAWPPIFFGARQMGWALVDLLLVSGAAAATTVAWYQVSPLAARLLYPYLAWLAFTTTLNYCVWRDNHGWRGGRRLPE
QUANTITY_NAME: pIC50
Give bare numbers, as −log10 of the molar value.

Identify pIC50 associated with the compound COC(=O)C[C@@H]1N=C(c2ccc(Cl)cc2)c2c(sc(C)c2C)-n2c(C)nnc21
6.40
